protocol-notes: NCI Yeast Anticancer Drug Screen. Data for the rad50 strain (AID 155);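 further: 0% = growth of vehicle-only cultures of the same strain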
experimental-parameters: S. cerevisiae rad50 strain growth inhibition; at 50.0 µM; active compounds read high
This is part of a sample that, as a whole, favours compounds with a hit. Of some 79,000 tested, about 15% had one in any assay.
value-kind: growth inhibition (%)

• COc1cc(/C=C/C(=O)N[C@@H]2C(=O)N3[C@@H]2SC(C)(C)[C@@H]3C(=O)O)ccc1O = -7.45
• C1CCN(CCC2CCNCC2)C1 = 5.5
• CCCCN=NNc1cn(C2OC(CO)C(O)C2O)c(=O)[nH]c1=O (stereo unspecified) = -22.4
• CCC1(c2ccc(N3C(=O)c4cc(OC)c(OC)cc4C3=O)cc2)CCC(=O)NC1=O (stereo unspecified) = -6.25
• Cn1cnc2ncnc(Nc3ccc(Cl)cc3)c21 = 5.25
• CC[N+](CC)(CC)Cc1cc2ccccc2n1C(=O)OC = -9.25

----------
growth inhibition values, listed per item
protocol-notes: NCI Yeast Anticancer Drug Screen. Data for the rad50 strain (AID 155);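 further: 0% = growth of vehicle-only cultures of the same strain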
experimental-parameters: S. cerevisiae rad50 strain growth inhibition; at 50.0 µM; active compounds read high
The panel holds about 79,000 compounds, 15% with a hit somewhere; the sample as a whole holds those more often. Calls of active or inactive are those of the source. No stated cut-off is given here; in the data, active means growth inhibition above about 70%; inactive means the rest.
value-kind: growth inhibition

• COC(=O)c1ccc(SCCC(=O)CO)cc1 = 19.4% (inactive)
• CC(=O)C(CCCCCCCCCCC(C(C)=O)C(C)=O)C(C)=O = -9.3% (inactive)
• N#CCc1n[nH]c(Cc2ccccc2)n1 = 2.35% (inactive)
• CCCC(=O)OCc1ccc(Cl)c(Cl)c1 = 21.6% (inactive)
• Nc1c(Cl)ncnc1NCCc1ccccc1 = -3.35% (inactive)
• CN(C)c1ccc(/C=C(\C#N)c2c(Br)cccc2Br)cc1 = -20.1% (inactive)
• Cc1ccccc1N=Nc1c(-c2ccccc2)nn(C(N)=S)c1-c1ccccc1 = 36.2% (inactive)
• CNC(=O)/C(=C\c1ccccc1)NC(C)=O = 9% (inactive)
• O=C(O)/C=C/C1CCCCC1 = 26.4% (inactive)
• Cc1[nH]c2ccc(C(=O)NN)cc2c1CC(=O)NN = 12.2% (inactive)
• Oc1ccccc1CN=Cc1ccccc1 = 7.45% (inactive)

----------
protocol-notes: NCI Yeast Anticancer Drug Screen. Data for the bub3 strain (AID 167)
experimental-parameters: S. cerevisiae bub3 mutant strain, at 50.0 µM
Experimental: Growth inhibition of yeast strains with defined genetic alterations is measured as a screen for potential anti-cancer activity. Selected strains with alterations in DNA damage repair or cell cycle control were exposed to compounds and growth inhibition was measured relative to vehicle treated controls. The strain used in this assay is bub3
The panel holds about 79,000 compounds, 15% with a hit somewhere; the sample as a whole holds those more often. Active and inactive are the calls of the source. Cut-off read from the data, not from the text of the source: active = growth inhibition above about 70%; inactive = the rest.
Outcome codes: yes for active, no for inactive

- Nc1nc2c(C(=O)c3cccs3)nnn2c2cccc(Cl)c12: no
- CC(=O)C1CCC2C3CC=C4CC(O)C=CC4(C)C3CCC12C (centres undefined): no
- Cc1cc(-c2cc(C)c(N)cc2S(=O)(=O)O)c(S(=O)(=O)O)cc1N: no
- C[N+](C)(CC(=O)Nc1cc(C(F)(F)F)cc(C(F)(F)F)c1)CC(=O)Nc1ccc(Cl)c(C(F)(F)F)c1: yes
